Provide the recorded GRmax, 72 h for the entries that follow.
test system: HCC1428; test: GRmax, 72 h; higher = less effect
Answers are plain numbers, in GR.

Illustrative cases are given below, each with its answer.
compound	GRmax, 72 h [GR]
O=C(CCCCCCC(=O)Nc1ccccc1)NO [Vorinostat] (max 10 µM)	-0.479
CC(=O)Nc1cccc(-n2c(=O)n(C3CC3)c(=O)c3c(Nc4ccc(I)cc4F)n(C)c(=O)c(C)c32)c1 (max 1 µM)	0.815
CC[C@@H]1C(=O)N(C)c2cnc(Nc3ccc(C(=O)N[C@H]4CC[C@H](N5CCN(CC6CC6)CC5)CC4)cc3OC)nc2N1C(C)C [Volasertib/BI6727] (max 1 µM)	-0.0388
Nc1cc(C(F)(F)F)c(-c2cc(N3CCOCC3)nc(N3CCOCC3)n2)cn1 [Buparlisib/NVP-BKM120] (max 10 µM)	-0.265
NC(=O)Nc1cc(-c2cccc(F)c2)sc1C(=O)N[C@H]1CCCNC1 [AZD7762] (max 10 µM)	-0.215
CCc1cnn2c(NCc3ccc[n+]([O-])c3)cc(N3CCCC[C@H]3CCO)nc12 (max 1 µM)	-0.672
CC(=O)O[C@H]1C(=O)[C@@]2(C)[C@H]([C@H](OC(=O)c3ccccc3)[C@]3(O)C[C@H](OC(=O)[C@H](O)[C@@H](NC(=O)c4ccccc4)c4ccccc4)C(C)=C1C3(C)C)[C@]1(OC(C)=O)CO[C@@H]1C[C@@H]2O [Paclitaxel] (max 1 µM)	0.0645
CCNC(=O)c1noc(-c2cc(C(C)C)c(O)cc2O)c1-c1ccc(CN2CCOCC2)cc1 [Luminespib/NVP-AUY922] (max 1 µM)	-0.0043

Next compound, please.
State its GRmax, 72 h for this compound: COc1cc2nccc(Oc3ccc(NC(=O)C4(C(=O)Nc5ccc(F)cc5)CC4)cc3)c2cc1OC [Cabozantinib] (max 10 µM)
0.631

====

tested on: PDXHCI002; assay: GRmax, 72 h; higher = less effect
measured.property: GRmax, 72 h (GR)
One number for each entry, in GR.

Provide GRmax, 72 h values for the following items, in order.
1. CNC(=O)c1cccc(-c2ccc3c(N4CCOC[C@@H]4C)nc(N4CCOC[C@@H]4C)nc3n2)c1 [AZD2014] (max 10 µM)
2. CO[C@@H](C)Cn1c(=O)n(C)c2cnc3ccc(-c4cncc(C(C)(C)O)c4)cc3c21 (max 10 µM)
3. CC1(N)CCN(c2cnc(-c3cccc(Cl)c3Cl)c(N)n2)CC1 [SHP099] (max 10 µM)
4. CC(=O)Nc1cccc(-n2c(=O)n(C3CC3)c(=O)c3c(Nc4ccc(I)cc4F)n(C)c(=O)c(C)c32)c1 (max 1 µM)

1: 0.489; 2: -0.0949; 3: 0.63; 4: 0.642

Provide GRmax, 72 h values for the following items, in order.
1. CNCc1ccc(-c2[nH]c3cc(F)cc4c3c2CCNC4=O)cc1 [Rucaparib] (max 10 µM)
2. CN(C)C/C=C/C(=O)Nc1ccc(C(=O)Nc2cccc(Nc3cc(-c4c[nH]c5ccccc45)ncn3)c2)cc1 [THZ-P1-2] (max 10 µM)
3. C[C@@H]1COCCN1c1cc(C2([S@](C)(=N)=O)CC2)nc(-c2cc[nH]c3nccc2-3)n1 [AZD6738] (max 10 µM)

1: 0.516; 2: 0.721; 3: 0.734

====

test system: SUM1315; test: GRmax, 72 h; higher = less effect
Provide the recorded GRmax, 72 h for the entries that follow.
Answers are plain numbers, in GR.

molecule	GRmax, 72 h [GR]
CC[C@@H]1C(=O)N(C)c2cnc(Nc3ccc(C(=O)N[C@H]4CC[C@H](N5CCN(CC6CC6)CC5)CC4)cc3OC)nc2N1C(C)C [Volasertib/BI6727] (max 1 µM)	-0.388
NC1(C(=O)N[C@@H](CCO)c2ccc(Cl)cc2)CCN(c2nc[nH]c3nccc2-3)CC1 [AZD5363] (max 10 µM)	0.694
CN(C)C/C=C/C(=O)Nc1ccc(C(=O)Nc2cccc(Nc3ncc(Cl)c(-c4c[nH]c5ccccc45)n3)c2)cc1 [THZ1] (max 1 µM)	-0.906
CC(=O)c1c(C)c2cnc(Nc3ccc(N4CCNCC4)cn3)nc2n(C2CCCC2)c1=O (max 3.162 µM)	0.3
COc1ccc2c(c1)[C@]1(C[C@H]1c1ccc3c(/C=C/c4ccc(CN5C[C@@H](C)O[C@@H](C)C5)cc4)n[nH]c3c1)C(=O)N2	-0.232

State its GRmax, 72 h for this molecule: CCOc1cc2ncc(C#N)c(Nc3ccc(OCc4ccccn4)c(Cl)c3)c2cc1NC(=O)/C=C/CN(C)C [Neratinib/HKI272] (max 3.162 µM)
0.114

====

Provide the recorded GRmax, 72 h for the entries that follow.
tested on: HTERT_HME1; test: GRmax, 72 h; higher = less effect;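 further: breast cell lines in 384-well plates, nine doses across a 10^4 range, Dye Drop imaging of viable cells vs DMSO and time-zero plates, GR 0 means no net growth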
One number for each entry, in GR.

Provide GRmax, 72 h values for the following items, in order.
1. CO[C@@H](C)Cn1c(=O)n(C)c2cnc3ccc(-c4cncc(C(C)(C)O)c4)cc3c21 (max 10 µM)
2. CN(C)C/C=C/C(=O)Nc1ccc(O[C@@H]2CCC[C@@H](Nc3ncc(Cl)c(-c4c[nH]c5ccccc45)n3)C2)cc1 [BSJ-01-175] (max 10 µM)
3. CC(=O)c1c(C)c2cnc(Nc3ccc(N4CCNCC4)cn3)nc2n(C2CCCC2)c1=O (max 3.162 µM)
4. NC(=O)Nc1cc(-c2cccc(F)c2)sc1C(=O)N[C@H]1CCCNC1 [AZD7762] (max 10 µM)

0.0519
-0.28
0.257
-0.478

====

system: MCF10A; experiment: area over the GR curve, 72 h; higher = more effect
Returns one of Satisfied or Not satisfied; Satisfied when area over the GR curve is >= 0.4 GR.

Would you please look over these solved cases?
compound	class.name
COc1cc2c(Oc3ccc4[nH]c(C)cc4c3F)ncnc2cc1OCCCN1CCCC1 [Cediranib/AZD2171] (max 10 µM)	Not satisfied
CC[C@@]1(O)C(=O)OCc2c1cc1n(c2=O)Cc2cc3c(CN(C)C)c(O)ccc3nc2-1 [Topotecan] (max 10 µM)	Satisfied
CC[C@@H]1C(=O)N(C)c2cnc(Nc3ccc(C(=O)N[C@H]4CC[C@H](N5CCN(CC6CC6)CC5)CC4)cc3OC)nc2N1C(C)C [Volasertib/BI6727] (max 1 µM)	Satisfied
CN1CCN(C(=O)c2ccc3cc(CCNc4ncnc5ccc(C#N)cc45)ccc3c2)CC1 [senexin b] (max 10 µM)	Not satisfied
C=CC(=O)Nc1ccc(C(=O)Nc2[nH]nc3c2CN(C(=O)N[C@H](CN(C)C)c2ccccc2)C3(C)C)cc1 [YKL-5-124] (max 10 µM)	Satisfied

Proceed to the following item.
I'd appreciate it if you could say whether CC(C)n1nc(-c2ccc3oc(N)nc3c2)c2c(N)ncnc21 [INK128/MLN0128] (max 3.162 µM) has area over the GR curve at least equal to 0.4 GR.
Satisfied

====

system: HCC38; assay: area over the GR curve, 72 h; higher = more effect;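 further: Dye Drop or Deep Dye Drop imaging of viable cells in 384-well plates (Hoechst nuclei, LIVE/DEAD dye), nine half-log doses, GR normalized to DMSO controls and time-zero plates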
Returns one of fulfilled or not fulfilled; fulfilled when area over the GR curve is >= 0.6 GR.

Would you please look over these solved cases?
compound	system.name	class.name
CS(=O)(=O)N1CCN(Cc2cc3nc(-c4cccc5[nH]ncc45)nc(N4CCOCC4)c3s2)CC1 [Pictilisib/GDC0941] (max 10 µM)	HCC38	not fulfilled
CC(C)NC[C@@H](C(=O)N1CCN(c2ncnc3c2[C@H](C)C[C@H]3O)CC1)c1ccc(Cl)cc1 [Ipatasertib/GDC0068] (max 10 µM)	HCC38	not fulfilled
CN1CCN(CCOc2cc(OC3CCOCC3)c3c(Nc4c(Cl)ccc5c4OCO5)ncnc3c2)CC1 [Saracatinib/AZD0530] (max 10 µM)	HCC38	not fulfilled
COc1cccc(OCCCN)c1-c1cc(Nc2cnc(C#N)cn2)n[nH]1	HCC38	fulfilled
CN(C)CC[C@H](CSc1ccccc1)Nc1ccc(S(=O)(=O)NC(=O)c2ccc(N3CCN(Cc4ccccc4-c4ccc(Cl)cc4)CC3)cc2)cc1[N+](=O)[O-] [ABT-737] (max 10 µM)	HCC38	not fulfilled

I'd appreciate it if you could say whether CN(C)C/C=C/C(=O)Nc1ccc(C(=O)Nc2cccc(Nc3ncc(Cl)c(-c4c[nH]c5ccccc45)n3)c2)cc1 [THZ1] (max 1 µM) has area over the GR curve at least equal to 0.6 GR.
not fulfilled

I'd appreciate it if you could say whether COc1cccc2c1C(=O)c1c(O)c3c(c(O)c1C2=O)C[C@@](O)(C(=O)CO)C[C@@H]3O[C@H]1C[C@H](N)[C@H](O)[C@H](C)O1 [Doxorubicin] (max 3.162 µM) has area over the GR curve at least equal to 0.6 GR.
fulfilled

I'd appreciate it if you could say whether C=CC(=O)Nc1ccc(C(=O)Nc2[nH]nc3c2CN(C(=O)N[C@H](CN(C)C)c2ccccc2)C3(C)C)cc1 [YKL-5-124] (max 10 µM) has area over the GR curve at least equal to 0.6 GR.
fulfilled

I'd appreciate it if you could say whether CC(C)n1nc(-c2ccc3oc(N)nc3c2)c2c(N)ncnc21 [INK128/MLN0128] (max 3.162 µM) has area over the GR curve at least equal to 0.6 GR.
not fulfilled

I'd appreciate it if you could say whether CC(=O)Nc1cccc(-n2c(=O)n(C3CC3)c(=O)c3c(Nc4ccc(I)cc4F)n(C)c(=O)c(C)c32)c1 (max 1 µM) has area over the GR curve at least equal to 0.6 GR.
not fulfilled

I'd appreciate it if you could say whether CN1CC[C@H](c2c(O)cc(O)c3c(=O)cc(-c4ccccc4Cl)oc23)[C@H](O)C1 [Flavopiridol] (max 1 µM) has area over the GR curve at least equal to 0.6 GR.
not fulfilled

I'd appreciate it if you could say whether CC[C@@]1(O)C(=O)OCc2c1cc1n(c2=O)Cc2cc3c(CN(C)C)c(O)ccc3nc2-1 [Topotecan] (max 10 µM) has area over the GR curve at least equal to 0.6 GR.
fulfilled

I'd appreciate it if you could say whether CCOc1cc2ncc(C#N)c(Nc3ccc(OCc4ccccn4)c(Cl)c3)c2cc1NC(=O)/C=C/CN(C)C [Neratinib/HKI272] (max 3.162 µM) has area over the GR curve at least equal to 0.6 GR.
not fulfilled
